Value source: ChEMBL document CHEMBL5247597

Catalogue of IC50 at 72 h values
Assay: Cytotoxicity against human HL7702 cells assessed as inhibition of cell growth measured after 72 hrs by CCK8 assay
Format: toxicity, cell-based
Settings: HL7702 (L02) cells
Express your answer in nM, writing the number without its unit.

| Compound | Reported Measurement |
| --- | --- |
| COC(=O)C[C@](O)(CCCC(C)(C)O)C(=O)O[C@@H]1C(OC)=C[C@]23CCCN2CCc2cc4c(cc2[C@H]13)OCO4 [OMACETAXINE MEPESUCCINATE] | 64 |

Next item in the queue.
Problem: Report measured IC50 at 72 h; entry is `COC(=O)C[C@H](Cc1ccc(N)cc1)C(=O)O[C@@H]1C(OC)=C[C@]23CCCN2CCc2cc4c(cc2[C@H]13)OCO4`
Result: 494
